Measured Plant response rating, Surinam Grass by item
Test system: Surinam grass (Brachiaria decumbens)
Test: Test B pre-/postemergence plant response
Format: in vivo
Settings: Postemergence, 62 g ai/ha; scale 0 (no effect) to 100 (complete control); 13 to 15 days
// no unit string in output, number only

- structure-notation: "Cc1cccc(-n2c(-c3ccccc3)ncc(C(=O)C3=C(O)CCCC3=O)c2=O)c1C"
  data-value: 70
- structure-notation: "Cc1ccc(F)c(-n2c(-c3ccccc3)ncc(C(=O)C3=C(O)CCCC3=O)c2=O)c1"
  data-value: 85
- structure-notation: "CCCCc1ncc(C(=O)C2=C(O)CCCC2=O)c(=O)n1-c1ccccc1C"
  data-value: 45
- structure-notation: "O=C1CCCC(O)=C1C(=O)c1cnc(-c2ccccc2)n(-c2ccccc2Br)c1=O"
  data-value: 70

Here is another molecule to look at.
q: Returns the measured Plant response rating, Surinam Grass for the input molecule. Input: Cc1ccc(-n2c(-c3cccc(Cl)c3)ncc(C(=O)C3=C(O)CCCC3=O)c2=O)cc1
a: 65

----------
Measured Plant response rating, Cocklebur by item
System: cocklebur (Xanthium strumarium)
Test: Test B pre-/postemergence plant response
Format: in vivo
Settings: Postemergence, 250 g ai/ha; scale 0 to 100 (0 no effect, 100 complete control)
// no unit string in output, number only

Answered cases to consult:
- compound: "CCCn1c(-c2ccsc2)ncc(C(=O)C2=C(O)CCCC2=O)c1=O [Compound 93]"
  Plant response rating, Cocklebur: 98
- compound: "Cc1ccc(Cl)cc1-n1c(-c2ccccc2)ncc(C(=O)C2=C(O)CCCC2=O)c1=O [Compound 52]"
  Plant response rating, Cocklebur: 85
- compound: "O=C1CCCC(O)=C1C(=O)c1cnc(-c2ccccc2)n(C2CC2)c1=O [Compound 90]"
  Plant response rating, Cocklebur: 100

q: Returns the measured Plant response rating, Cocklebur for the input compound. Input: CCCn1c(-c2ccccc2)ncc(C(=O)C2=C(O)CCCC2=O)c1=O [Compound 50]
a: 90

q: Returns the measured Plant response rating, Cocklebur for the input compound. Input: CCOCCn1c(-c2ccccc2)ncc(C(=O)C2=C(O)CCCC2=O)c1=O [Compound 96]
a: 100

q: Returns the measured Plant response rating, Cocklebur for the input compound. Input: Cc1ccc(F)c(-n2c(-c3ccccc3)ncc(C(=O)C3=C(O)CCCC3=O)c2=O)c1 [Compound 51]
a: 90

----------
Test system: downy bromegrass (Bromus tectorum)
Experiment: Test B pre-/postemergence plant response
Assay type: in vivo
Settings: Postemergence, 62 g ai/ha; scale 0 (no effect) to 100 (complete control); 13 to 15 days
observation-type: Plant response rating, Bromegrass, Downy

Answered cases to consult:
- structure-notation: "CCn1c(-c2ccccc2)ncc(C(=O)C2=C(O)CCCC2=O)c1=O"
  Plant response rating, Bromegrass, Downy: 0
- structure-notation: "Cc1cccc(-n2c(-c3cccc(Cl)c3)ncc(C(=O)C3=C(O)CCCC3=O)c2=O)c1"
  Plant response rating, Bromegrass, Downy: 20
- structure-notation: "Cc1cccc(-n2c(-c3ccccc3)ncc(C(=O)C3=C(O)CCCC3=O)c2=O)c1C"
  Plant response rating, Bromegrass, Downy: 5
- structure-notation: "O=C1CCCC(O)=C1C(=O)c1cnc(-c2cccs2)n(-c2ccccc2)c1=O"
  Plant response rating, Bromegrass, Downy: 10
- structure-notation: "CCCn1c(-c2ccccc2)ncc(C(=O)C2=C(O)CCCC2=O)c1=O"
  Plant response rating, Bromegrass, Downy: 5

q: Returns the measured Plant response rating, Bromegrass, Downy for the input molecule. Input: O=C1CCCC([O-])=C1C(=O)c1cnc(-c2ccccc2)n(-c2ccccc2)c1=O.[K+]
a: 30

----------
Test system: downy bromegrass (Bromus tectorum)
Assay: Test B pre-/postemergence plant response
Type: in vivo
Conditions: Postemergence, 125 g ai/ha; visual rating after 13 to 15 days, scale 0 (no effect) to 100 (complete control)
Plant response rating, Bromegrass, Downy strictly under 20 means Y; at 20 or over means N.

These solved cases illustrate the format of a correct answer.
- structure-notation: "O=C1CCCC(O)=C1C(=O)c1cnc(-c2cccc(Br)c2)n(-c2ccccc2)c1=O"
  assigned-class: "N"
- structure-notation: "O=C1CCCC(O)=C1C(=O)c1cnc(-c2ccccc2)n(-c2ccc(F)cc2)c1=O"
  assigned-class: "N"
- structure-notation: "Cc1ccc(C)c(-n2c(-c3ccccc3)ncc(C(=O)C3=C(O)CCCC3=O)c2=O)c1"
  assigned-class: "N"
- structure-notation: "CCCc1ncc(C(=O)C2=C(O)CCCC2=O)c(=O)n1-c1cccc(C)c1"
  assigned-class: "N"
- structure-notation: "CCOCCn1c(-c2ccccc2)ncc(C(=O)C2=C(O)CCCC2=O)c1=O"
  assigned-class: "Y"

q: hey, is Plant response rating, Bromegrass, Downy for O=C1CCCC(O)=C1C(=O)c1cnc(-c2cccc(Cl)c2)n(-c2ccccc2)c1=O lower than 20 or not?
a: N

q: hey, is Plant response rating, Bromegrass, Downy for Cc1cccc(-n2c(-c3ccccc3)ncc(C(=O)C3=C(O)CCCC3=O)c2=O)c1F lower than 20 or not?
a: N

q: hey, is Plant response rating, Bromegrass, Downy for CCn1c(-c2ccccc2)ncc(C(=O)C2=C(O)CCCC2=O)c1=O lower than 20 or not?
a: Y

q: hey, is Plant response rating, Bromegrass, Downy for CCCn1c(-c2ccsc2)ncc(C(=O)C2=C(O)CCCC2=O)c1=O lower than 20 or not?
a: Y

----------
Tested on: wheat (Triticum aestivum)
Assay: Test A pre-/postemergence plant response
Assay type: in vivo
Settings: Postemergence, 125 g ai/ha; 0 to 100 scale where 0 is no effect and 100 is complete control
observation-type: Plant response rating, Wheat
// no unit string in output, number only

Answered cases to consult:
- compound: "CCn1c(-c2cccc(F)c2)ncc(C(=O)C2=C(O)CCCC2=O)c1=O"
  measurement-target: "wheat (Triticum aestivum)"
  Plant response rating, Wheat: 0
- compound: "O=C1CCCC(O)=C1C(=O)c1cnc(-c2ccsc2)n(CC2CCCO2)c1=O (stereo not drawn)"
  measurement-target: "wheat (Triticum aestivum)"
  Plant response rating, Wheat: 0
- compound: "C#CCn1c(-c2cc(F)cc(F)c2)ncc(C(=O)C2=C(O)CCCC2=O)c1=O"
  measurement-target: "wheat (Triticum aestivum)"
  Plant response rating, Wheat: 0
- compound: "CCc1ccc(-n2c(-c3cccc(F)c3)ncc(C(=O)C3=C(O)CCCC3=O)c2=O)cc1"
  measurement-target: "wheat (Triticum aestivum)"
  Plant response rating, Wheat: 0
- compound: "COCCn1c(-c2ccn(C)n2)ncc(C(=O)C2=C(O)CCCC2=O)c1=O"
  measurement-target: "wheat (Triticum aestivum)"
  Plant response rating, Wheat: 0
- compound: "Cc1ccccc1-n1c(-c2cccc(Br)c2)ncc(C(=O)C2=C(O)CCCC2=O)c1=O"
  measurement-target: "wheat (Triticum aestivum)"
  Plant response rating, Wheat: 0

q: Returns the measured Plant response rating, Wheat for the input compound. Input: COCCn1c(-c2ccco2)ncc(C(=O)C2=C(O)CCCC2=O)c1=O
a: 0

q: Returns the measured Plant response rating, Wheat for the input compound. Input: Cc1cccc(-c2ncc(C(=O)C3=C(O)CCCC3=O)c(=O)n2-c2ccc(F)cc2C)c1
a: 0

q: Returns the measured Plant response rating, Wheat for the input compound. Input: CCCn1c(C2CC2)ncc(C(=O)C2=C(O)CCCC2=O)c1=O
a: 0

----------
Test system: goosegrass (Eleusine indica)
Experiment: Test B pre-/postemergence plant response
Type: in vivo
Conditions: Preemergence, 31 g ai/ha; scale 0 to 100 (0 no effect, 100 complete control)
Plant response rating, Goosegrass strictly under 80 means Y; at 80 or over means N.

- structure-notation: "Cc1ccc(C)c(-n2c(-c3ccccc3)ncc(C(=O)C3=C(O)CCCC3=O)c2=O)c1"
  assigned-class: "N"
- structure-notation: "Cc1ccc(F)c(-n2c(-c3ccccc3)ncc(C(=O)C3=C(O)CCCC3=O)c2=O)c1"
  assigned-class: "N"
- structure-notation: "CCCn1c(-c2ccccc2)ncc(C(=O)C2=C(O)CCCC2=O)c1=O"
  assigned-class: "N"
- structure-notation: "Cc1cccc(-n2c(-c3ccccc3)ncc(C(=O)C3=C(O)CCCC3=O)c2=O)c1F"
  assigned-class: "N"
- structure-notation: "CCCCc1ncc(C(=O)C2=C(O)CCCC2=O)c(=O)n1-c1ccccc1C"
  assigned-class: "Y"

q: hey, is Plant response rating, Goosegrass for O=C1CCCC(O)=C1C(=O)c1cnc(-c2ccccc2)n(-c2ccc(F)cc2)c1=O lower than 80 or not?
a: N

----------
System: pigweed (Amaranthus retroflexus)
Assay: Test B pre-/postemergence plant response
Assay type: in vivo
Conditions: Postemergence, 62 g ai/ha; scale 0 (no effect) to 100 (complete control); 13 to 15 days
From the text: […] Treated plants and controls were maintained in a greenhouse for 13 to 15 days, after which time all treated plants were visually evaluated and compared to controls. […]
Measured Plant response rating, Pigweed by item

- structure-notation: "O=C1CCCC(O)=C1C(=O)c1cnc(-c2cccc(Cl)c2)n(-c2ccccc2)c1=O"
  measurement-target: "pigweed (Amaranthus retroflexus)"
  observation-type: "Plant response rating, Pigweed"
  data-value: 90
- structure-notation: "Cc1cccc(-n2c(-c3ccccc3)ncc(C(=O)C3=C(O)CCCC3=O)c2=O)c1C"
  measurement-target: "pigweed (Amaranthus retroflexus)"
  observation-type: "Plant response rating, Pigweed"
  data-value: 98

Here is another compound to look at.
q: Returns the measured Plant response rating, Pigweed for the input compound. Input: O=C1CCCC(O)=C1C(=O)c1cnc(-c2ccccc2)n(-c2ccc(F)cc2)c1=O
a: 80
